Provenance of the data: patent US20260062387A1

# assay target: GST-tagged SIK1 (Homo sapiens (Human), UniProt P57059)
# Sequence (P57059 whole entry): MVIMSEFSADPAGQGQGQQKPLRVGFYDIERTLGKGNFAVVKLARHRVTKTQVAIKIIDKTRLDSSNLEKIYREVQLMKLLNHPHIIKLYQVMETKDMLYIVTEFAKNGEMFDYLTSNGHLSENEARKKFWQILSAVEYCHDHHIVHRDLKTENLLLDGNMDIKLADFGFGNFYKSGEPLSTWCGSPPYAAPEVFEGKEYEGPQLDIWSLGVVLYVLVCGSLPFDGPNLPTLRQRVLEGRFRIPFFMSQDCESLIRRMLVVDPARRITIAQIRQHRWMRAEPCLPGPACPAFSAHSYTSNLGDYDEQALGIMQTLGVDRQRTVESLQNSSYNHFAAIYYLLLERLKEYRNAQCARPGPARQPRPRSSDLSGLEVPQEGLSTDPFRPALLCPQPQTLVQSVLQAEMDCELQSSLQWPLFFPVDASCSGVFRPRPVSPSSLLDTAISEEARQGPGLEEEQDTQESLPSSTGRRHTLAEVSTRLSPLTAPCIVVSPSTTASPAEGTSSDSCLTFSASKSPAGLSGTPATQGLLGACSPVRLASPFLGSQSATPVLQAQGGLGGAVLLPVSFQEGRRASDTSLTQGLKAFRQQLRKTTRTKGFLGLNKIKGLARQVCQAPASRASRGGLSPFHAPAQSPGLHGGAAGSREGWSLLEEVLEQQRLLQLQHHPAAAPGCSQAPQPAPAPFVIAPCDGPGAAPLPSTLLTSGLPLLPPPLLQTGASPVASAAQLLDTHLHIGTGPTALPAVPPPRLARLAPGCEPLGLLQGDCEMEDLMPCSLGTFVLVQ
# experiment: SIK1 inhibition test (ADP-Glo Max Assay)
# Format: biochemical
# conditions: enzyme 20 nM, AMARA Peptide 200 μM, ATP 1 mM, 2 hours room temperature
experimental endpoint: IC50 (nM)
Form entry: value (nM) — number only.

Record excerpt, results attached:
| compound | measure unit | IC50 |
| --- | --- | --- |
| COc1cc(-c2c3c(C(F)F)cc(-c4cnn(CC(C)(C)O)c4)cc3nn2C)cc(OC(F)F)c1C(=O)N[C@@H]1CC1(F)F | nM | 18 |
| COc1cc(-c2c3c(C#N)cc(-c4cnn(C)c4)cc3nn2C)cc(OC(F)F)c1C(=O)N1CC(O)(C(F)F)C1 | nM | 9.6 |
| COc1cc(-c2c3c(C#N)cc(-c4cnn(C)c4)cc3nn2C)cc(OC(F)F)c1C(N)=O | nM | 17.4 |
| COc1cc(-c2c3c(C#N)cc(-c4cnn(CC(C)(C)O)c4)cc3nn2C)cc(OC(F)F)c1C(=O)NC[C@@H]1CC1(F)F (single isomer, unassigned) | nM | 13.7 |

// switching to the query compound
Task: IC50 for CCOCCn1cc(-c2cc(C#N)c3c(-c4cc(OC)c5c(c4)C(C)(C)CNC5=O)n(C)nc3c2)cn1 ?
Output: 7.2
